assay: Cmax in Wistar rat at 5 mg/kg, po administered as triple or quadruple dosing measured after 1 to 24 hrs by reverse-phase HPLC method; format: ADME, organism-based; set-up: dose 5 mg/kg, route oral; details: in vivo
Hi, to clarify the labels: Met covers Cmax from 30 µM upward, Not met covers anything below 30 µM.

Completed entries (count: 2):
// query I'd appreciate it if you could say whether `O=C(Nc1cccc(-c2ccoc2)c1)C(=O)Nc1ccc(Cl)cc1C(=O)O` has Cmax at least equal to 30 µM.
// result Not met

// query I'd appreciate it if you could say whether `O=C(Nc1ccc(Cl)cc1C(=O)[O-])c1cccc(-c2cncc3ccccc23)c1.[Na+]` has Cmax at least equal to 30 µM.
// result Not met

New cases:
// query I'd appreciate it if you could say whether `O=C(Nc1ccc(Cl)cc1C(=O)[O-])c1cccc(-c2ccncc2)c1.[Na+]` has Cmax at least equal to 30 µM.
// result Not met

// query I'd appreciate it if you could say whether `O=C(NCc1cccc(-c2ccoc2)c1)C(=O)Nc1ccc(Cl)cc1C(=O)O` has Cmax at least equal to 30 µM.
// result Met
